Data origin, for the record: paper PMC12951430

- SYSTEM UNDER TEST: wt EGFR (Homo sapiens, UniProt P00533)
- Sequence (P00533 25-1210): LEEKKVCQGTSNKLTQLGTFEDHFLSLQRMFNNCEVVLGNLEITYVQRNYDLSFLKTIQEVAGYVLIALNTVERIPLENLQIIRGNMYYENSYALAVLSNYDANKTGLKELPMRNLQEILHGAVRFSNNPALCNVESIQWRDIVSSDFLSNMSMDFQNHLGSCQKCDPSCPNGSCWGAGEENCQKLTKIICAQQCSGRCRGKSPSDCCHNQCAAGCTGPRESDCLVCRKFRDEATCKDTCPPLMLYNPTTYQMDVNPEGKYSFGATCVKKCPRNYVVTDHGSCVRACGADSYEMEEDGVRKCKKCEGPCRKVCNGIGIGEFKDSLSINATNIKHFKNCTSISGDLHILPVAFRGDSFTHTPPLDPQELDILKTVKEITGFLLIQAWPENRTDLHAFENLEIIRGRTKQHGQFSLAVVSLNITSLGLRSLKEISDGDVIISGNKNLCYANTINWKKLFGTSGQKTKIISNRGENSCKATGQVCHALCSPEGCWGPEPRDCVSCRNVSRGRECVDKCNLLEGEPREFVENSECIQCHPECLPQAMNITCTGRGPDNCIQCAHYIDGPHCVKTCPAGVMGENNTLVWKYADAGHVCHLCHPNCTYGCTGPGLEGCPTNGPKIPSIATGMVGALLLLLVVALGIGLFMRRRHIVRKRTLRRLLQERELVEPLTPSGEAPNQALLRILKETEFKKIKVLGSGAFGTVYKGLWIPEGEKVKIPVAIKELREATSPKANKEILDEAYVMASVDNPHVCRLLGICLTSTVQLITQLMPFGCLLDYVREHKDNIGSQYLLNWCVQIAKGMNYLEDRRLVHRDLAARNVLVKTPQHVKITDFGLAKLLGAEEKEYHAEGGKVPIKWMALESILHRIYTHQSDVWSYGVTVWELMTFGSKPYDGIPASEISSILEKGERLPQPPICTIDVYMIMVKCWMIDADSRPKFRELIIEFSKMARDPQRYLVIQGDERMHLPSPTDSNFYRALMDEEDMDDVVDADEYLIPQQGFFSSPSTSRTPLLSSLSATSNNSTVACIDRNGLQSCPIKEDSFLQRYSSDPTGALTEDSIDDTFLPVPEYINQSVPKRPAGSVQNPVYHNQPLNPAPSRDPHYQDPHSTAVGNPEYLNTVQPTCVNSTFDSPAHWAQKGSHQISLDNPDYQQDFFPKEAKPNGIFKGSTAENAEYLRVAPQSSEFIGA
QUANTITY MEASURED: Ki

Asked: // fetch wt EGFR (Homo sapiens, UniProt P00533) Ki for C=CP(=O)(Nc1cc2c(Nc3ccc(F)c(Cl)c3)ncnc2cc1O[C@H]1CCOC1)OCC (stereo partly shown) [4a]
Given back: 2.43 nM
